# Tested on: creatine kinase
# test.summary: Creatine kinase assay in Ad5-wt-ER infected HAECT-1 cells
# Assay type: cell-based, human
# test.settings: Homo sapiens, HAECT1, CK stimulation, N/O = activity not observed at concentrations tested, read-out: CK IC50
Documented pEC50 across a set of compounds
For clarity, pEC50 is expressed as the negative log10 of concentration in mol/L.

These solved cases illustrate the format of a correct answer.
compound: CC[C@H]1c2ccc(C#N)n2-c2ccc(F)cc2N1C(=O)c1ccc(O)cc1
pEC50: 6.20
//
compound: CC[C@@H]1c2cccn2-c2ccc(Br)cc2N1C(=O)c1ccc(O)cc1 [111 (R)]
pEC50: 6.93
//
compound: CCC1c2cccn2-c2ccc(F)cc2N1S(=O)(=O)c1cccc(O)c1 (centres unmarked)
pEC50: 6.69

[ask] Identify pEC50 associated with the compound CC[C@@H]1c2cccn2-c2ccc(F)cc2N1C(=O)c1cccc(O)c1 [127 (R)]
[reply] 6.80

[ask] Identify pEC50 associated with the compound CC[C@H]1c2cccn2-c2ccc(F)cc2N1C(=O)c1cccc(O)c1 [127 (S)]
[reply] 7.48

---

# Tested on: ER/Nf-kB
# test.summary: ER/NF-κB luciferase reporter assay in Ad5-wt-ER infected HAECT-1 cells (IL-1β induced)
# Format: cell-based, human
pIC50: −log10 of the molar value.
Returns one of 1 (yes) or 0 (no); 1 (yes) when pIC50 is >= 7.

Reference set, count: 5
compound: CC1c2cccn2-c2cc(F)c(F)cc2N1S(=O)(=O)c1ccc(O)cc1 (stereo not drawn)
tested.target: ER/Nf-kB
label.value: 1 (yes)
--
compound: CCC1c2cccn2-c2ccc(Br)cc2N1S(=O)(=O)c1ccc(O)cc1 (stereo not drawn)
tested.target: ER/Nf-kB
label.value: 1 (yes)
--
compound: CC1(C)c2cccn2-c2ccc(Br)cc2N1S(=O)(=O)c1ccc(O)cc1
tested.target: ER/Nf-kB
label.value: 0 (no)
--
compound: CCC1c2cccn2-c2ccc(C(F)(F)F)cc2N1S(=O)(=O)c1ccc(O)c(Cl)c1 (stereo not drawn)
tested.target: ER/Nf-kB
label.value: 0 (no)
--
compound: CCC1c2cccn2-c2ccccc2N1S(=O)(=O)c1ccc(O)c(C)c1 (stereo not drawn)
tested.target: ER/Nf-kB
label.value: 0 (no)

# ---- query compound ----
[ask] Evaluate CCC1c2cccn2-c2cc(F)c(F)cc2N1S(=O)(=O)c1ccc(O)cc1 (stereo not drawn) : pIC50 at minimum 7?
[reply] 1 (yes)

---

# Tested on: ER/Nf-kB
# test.summary: ER/NF-κB luciferase reporter assay in Ad5-wt-ER infected HAECT-1 cells (IL-1β induced)
# Format: cell-based, human
# test.settings: Homo sapiens, HAECT1
value.kind: pIC50
For clarity, pIC50 is expressed as the negative log10 of concentration in mol/L.

[ask] Identify pIC50 associated with the molecule C[C@]12CC[C@@H]3c4ccc(O)cc4CC[C@H]3[C@@H]1CC[C@@H]2O [Example E2, 17β-estradiol, reference compound]
[reply] 8.77

[ask] Identify pIC50 associated with the molecule CCC1c2cccn2-c2cc(O)c(F)cc2N1S(=O)(=O)c1ccc(O)c(C)c1 (stereo not shown) [Example 74]
[reply] 6.80

[ask] Identify pIC50 associated with the molecule CC[C@H]1c2ccc(C#N)n2-c2cc(F)c(F)cc2N1S(=O)(=O)c1ccc(O)c(C)c1 [Example 11B]
[reply] 6.48

[ask] Identify pIC50 associated with the molecule CC[C@H]1c2cccn2-c2ccc(Br)cc2N1S(=O)(=O)c1ccc(O)cc1 [Example 77]
[reply] 7.96
